Data origin, for the record: patent US20260209208A1

Below, each entry is listed alongside its reported IC50.
Molecular target: recombinant human PMYT-1 (Myt1 kinase) (Homo sapiens)
Construct: full length PMYT-1 was expressed by baculovirus in insect cells using a N-terminal GST tag
Sequence (Q99640 whole entry): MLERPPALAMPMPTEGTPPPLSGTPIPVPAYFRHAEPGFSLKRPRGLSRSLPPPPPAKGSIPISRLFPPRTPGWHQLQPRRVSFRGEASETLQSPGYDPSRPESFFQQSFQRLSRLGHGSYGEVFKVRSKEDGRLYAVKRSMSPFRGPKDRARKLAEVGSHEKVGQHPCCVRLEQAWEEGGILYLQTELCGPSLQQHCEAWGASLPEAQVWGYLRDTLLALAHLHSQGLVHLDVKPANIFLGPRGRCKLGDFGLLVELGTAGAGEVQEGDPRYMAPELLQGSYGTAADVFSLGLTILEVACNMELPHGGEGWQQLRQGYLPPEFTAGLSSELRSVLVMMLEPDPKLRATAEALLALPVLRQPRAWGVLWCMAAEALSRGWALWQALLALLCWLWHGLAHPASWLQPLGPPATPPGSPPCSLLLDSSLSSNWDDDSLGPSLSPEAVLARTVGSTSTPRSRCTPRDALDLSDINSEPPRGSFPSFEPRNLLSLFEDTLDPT
Experiment: LanthaScreen Europium (Eu) Kinase Binding Assay for Myt1 kinase
Conditions: TR-FRET tracer 178 displacement, GST-tagged full length PMYT-1, 60 min, room temperature; mean IC50; read-out: LANTHA Kinase Binding for PMyt1
Source text: We used a LanthaScreen Europium (Eu) Kinase Binding Assay to determine the binding of provided compounds to Myt1 kinase. […] The proximity of fluorescently labeled kinase tracer and europium (Eu) donor fluorophore antibody leads to fluorescence resonance energy transfer (FRET) to the fluorescence label (acceptor) upon excitation of the Eu (donor). […]

Look over these answered cases.
{"molecule": "Cc1ccc(O)c(C)c1-n1nc(-c2cc(C#CC(C)(C)O)co2)c(C(N)=O)c1N", "IC50": "10 to 100 nM"}
{"molecule": "Cc1cc(-c2nn(-c3c(C)ccc(O)c3C)c(N)c2C(N)=O)oc1C", "IC50": "≤ 10 nM"}
{"molecule": "Cc1ccoc1-c1nn(-c2c(C)ccc(O)c2C)c(N)c1C(N)=O", "IC50": "10 to 100 nM"}
{"molecule": "Cc1ccc(O)c(C)c1-n1nc(-c2ccoc2)c(C(N)=O)c1N", "IC50": "10 to 100 nM"}
{"molecule": "Cc1ccc(O)c(C)c1-n1nc(-c2coc(Br)c2)c(C(N)=O)c1N", "IC50": "10 to 100 nM"}
{"molecule": "Cc1ccc(O)c(C)c1-n1nc(-c2ccccc2Cl)c(C(N)=O)c1N", "IC50": "> 250 nM"}
{"molecule": "Cc1ccc(O)c(C)c1-n1nc(-c2ccc(-c3cccnc3)o2)c(C(N)=O)c1N", "IC50": "≤ 10 nM"}

Now let's try a different one.
Input: Which IC50 value is on record for Cc1ccc(O)c(C)c1-n1nc(-c2ccco2)c(C(N)=O)c1N (single isomer, unassigned) [Compound 105] ?
Output: 10 to 100 nM
